Values compiled from PubChem BioAssay (NCI).

Please respond with reported growth for every item in the list.
System: HCT-15 colon
Protocol text: NCI-60 one-dose screen, 48 h (100 = growth as untreated, 0 = no growth, -100 = all killed)
Run parameters: 10 µM unless noted
The panel holds about 83,000 compounds, 20% with a hit somewhere; the sample as a whole holds those more often. Calls of active or inactive are those of the source. The calls were made as follows: active = growth percent below 10; inactive = the rest.

For the compound shown here, `Cn1ncc2c(Nc3ccccc3Cl)nc(Cl)nc21` , give the reported growth. 98.4% (inactive)

Also, `c1ccc2c(-c3c4ccsc4cc4[nH]c5ccccc5c34)c[nH]c2c1` please. 24.7% (inactive)

Also need `Clc1ccc2c(c1)c(-c1ccccc1)nc1nncn12` , thanks. 108% (inactive)
